I'd be grateful if you could share measured melting point for these entries.

[ask] Please give the documented melting point of `CSc1cc(C)nc(SC)c1NC(=O)CCCCCCCCSc1nc2ccccc2s1`
[reply] 126 to 127 °C

[ask] Hello, please tell me recorded melting point for this one: `C[C@@H](n1cnc2c(Cl)cccc2c1=O)[C@](O)(Cn1cncn1)c1ccc(F)cc1F`
[reply] 110 to 113 °C

[ask] Read the entry `CC(C)(COc1ccc(Cl)cc1)C(=O)Cn1cncn1` and write its reported melting point.
[reply] 88 to 90 °C

[ask] Consider the compound `CCCCCCCCCCCCCCCCCCOc1cc(OCCCCC(=O)OC)cc(C(=O)OCc2ccccc2)c1` . State its measured melting point.
[reply] 40 to 42 °C

[ask] Could you please provide reported melting point for `COc1ccc2c(c1)Sc1ccc(SC)cc1C(=O)C2` ? Thanks!
[reply] 127 °C

[ask] Input `C=CCN(CC=C)CCCCC(=O)c1ccc2c(c1)Cc1cc(C(=O)CCCCN(CC=C)CC=C)ccc1O2` , output reported melting point.
[reply] 54 to 55 °C

[ask] Return melting point (reported value) for this compound: CN(C)c1ccc(NC(=O)C(C#N)C(=O)c2nn(-c3ccccc3)c3c2CSc2ccccc2-3)cc1 (centres undefined)
[reply] 215 to 216 °C

[ask] Specify measured melting point for `CCOC(=O)CN1C(=O)COc2c(Cl)nc(C)nc21` .
[reply] 69 to 70 °C

[ask] Quickly give me recorded melting point for `Nc1ccc2c(=O)[nH]c(=O)n(-c3ccccc3)c2n1`
[reply] > 300 °C

[ask] Provide one value: measured melting point of `CO/N=C(\C)c1ccc(Nc2c3ccccc3nc3occc23)cc1`
[reply] 167 to 168 °C

[ask] Provide one value: measured melting point of `CC(=O)Oc1cccc(-c2cc(-c3ccncc3)c(C#N)c(=O)[nH]2)c1`
[reply] 284 to 286 °C

[ask] Return melting point (reported value) for this compound: `CCCCc1nc(N)c(C(=O)OCC)[nH]1`
[reply] 103 to 106 °C

[ask] Kindly indicate its recorded melting point. Item: `Cc1cc(C(=O)CCc2cc(-c3ccc(C(F)(F)F)cc3)nn2C(C)C)ccc1OCC(=O)O`
[reply] 160 to 163 °C

[ask] Please indicate melting point recorded for `CC(=O)c1cc([N+](=O)[O-])c2c(c1)C(C)(C)CCO2`
[reply] 117 to 119 °C

[ask] Answer with the recorded melting point for the compound listed here: `COc1ccc(-c2nc(C(O)(C(F)(F)F)C(F)(F)F)[nH]c2-c2ccc(OC)cc2)cc1`
[reply] 144 to 146 °C

[ask] Please report melting point for the following compound: `CC(=O)Nc1nc(-c2cc(Cl)nc(Cl)c2)cs1`
[reply] 301 °C

[ask] Using the record for COc1c(C)c(C)cc(C)c1C(O)(c1ccccc1)C(C)C (centres undefined) , state its measured melting point.
[reply] 80 to 81 °C

[ask] # return recorded melting point for input O=[N+]([O-])C=C1NCC(c2ccccc2)O1 (centres undefined)
[reply] 139 to 141 °C

[ask] Tell us which melting point value is on record for `CCOc1ccc(CCNC(=O)/C=C/c2cccs2)cc1S(N)(=O)=O`
[reply] 55 °C

[ask] Quote melting point reported for CC1CCCN1CCCN1CCN(CCCN2CCCC2C)C1=C(C#N)C#N (centres undefined) please.
[reply] 89 to 93 °C

[ask] Give the reported value of melting point for this record: `CCOC(=O)c1nc(O)sc1C(C)=O`
[reply] 105 to 108 °C

[ask] Fill in melting point for record `O=C([O-])C12CC[N+](Cc3ccc4c(c3)Nc3nccnc3S4)(CC1)CC2`
[reply] 229 to 230 °C

[ask] Quote melting point reported for O=C1CCN(CC=Cc2ccccc2)CC1C(c1ccccc1)c1ccccc1 (centres undefined) please.
[reply] 114 to 115 °C

[ask] Using the record for C=C(C)CCC(=O)C(C(=O)OCC)C1c2ccccc2C(=O)N1c1ccc2ccc(Cl)nc2n1 (centres undefined) , state its measured melting point.
[reply] 125 °C

[ask] Return value of melting point for input `N[C@@H](CCC(=O)O)C(=O)N[C@@H](Cc1ccccc1)C(=O)OCc1ccccc1` , no commentary.
[reply] 103 to 104 °C

[ask] Give the value of melting point reported for the following: O=C(O)C(c1ccccc1)n1nnc(C(c2ccccc2)c2ccccc2)n1 (centres undefined)
[reply] 158 to 161 °C

[ask] Give melting point for the following compound: `[N-]=[N+]=CC(=O)OC/C=C/c1ccc(NC(=O)OCc2ccccc2)cc1F`
[reply] 93 to 96 °C

[ask] For the compound `COc1cc2ncc(C#N)c(Nc3ccc(C(N)=O)cc3)c2cc1OC` , give its measured melting point value.
[reply] > 250 °C

[ask] Give the reported melting point for this compound. `CC(=O)Nc1ccc(S(=O)(=O)N(Cc2cc(C(C)(C)C)c(O)c(C(C)(C)C)c2)c2cccnc2)cc1`
[reply] 167 to 169 °C

[ask] Answer with the recorded melting point for the compound listed here: `C[C@@H]1CN(c2ccc([N+](=O)[O-])cc2C#N)C[C@H](C)N1`
[reply] 109 to 110 °C

[ask] For CCCCN1CN(C2CC(OC(=O)c3ccccc3C)C(COC(=O)c3ccccc3C)O2)C(=O)NC1=O (centres undefined) , write its melting point.
[reply] 170 to 172 °C

[ask] Give reported melting point value for `COc1cc(C=O)ccc1OCC(=O)c1cc(C(C)(C)C)c(O)c(C(C)(C)C)c1`
[reply] 99 to 100 °C

[ask] Please give the documented melting point of `Cc1cn2nc(-c3ccccc3)nc2cc1NC(=O)c1c(C(=O)N2CCC2)cnn1C`
[reply] 226 to 228 °C

[ask] Look up melting point of `Cc1cc2c(cc1OCC(=O)O)C(C)(C)CC1(CC(C)(C)c3cc(OCC(=O)O)c(C)cc3O1)O2` and report it.
[reply] > 260 °C

[ask] Recall and state the measured melting point for `CCOC(=O)c1[nH]cc(C)c(=O)c1C` .
[reply] 124 to 126 °C

[ask] Retrieve melting point measured for `CN(C(=O)c1ccc(-n2cc3ccccc3n2)cc1)C1CCN(C(=O)OC(C)(C)C)CC1` and print it.
[reply] 176 to 177 °C

[ask] Give melting point for `CCn1c(N)c(C(=O)NC)c(=O)c2ccc(-c3ccc(CC(=O)Nc4ccccn4)nc3)nc21`
[reply] 266 °C

[ask] Consider the compound `CCC(C)(CC)NC(=S)Nc1cc(Cl)cc(Cl)c1` and give its recorded melting point.
[reply] 128 to 132 °C

[ask] Assign melting point to the following record: CCOC(=O)c1cn(CCF)c2nc(N3CCC(NC(C)=O)C3)c(F)cc2c1=O (centres undefined)
[reply] 269 to 270 °C
